system: human MC4-R (Homo sapiens, UniProt P32245)
Construct: expressed in transfected cells; host or cells: HEK293 T-REx (tetracycline-regulated, Invitrogen); cell line from Palatin Technologies with license from the University of Michigan
Sequence (P32245 whole entry): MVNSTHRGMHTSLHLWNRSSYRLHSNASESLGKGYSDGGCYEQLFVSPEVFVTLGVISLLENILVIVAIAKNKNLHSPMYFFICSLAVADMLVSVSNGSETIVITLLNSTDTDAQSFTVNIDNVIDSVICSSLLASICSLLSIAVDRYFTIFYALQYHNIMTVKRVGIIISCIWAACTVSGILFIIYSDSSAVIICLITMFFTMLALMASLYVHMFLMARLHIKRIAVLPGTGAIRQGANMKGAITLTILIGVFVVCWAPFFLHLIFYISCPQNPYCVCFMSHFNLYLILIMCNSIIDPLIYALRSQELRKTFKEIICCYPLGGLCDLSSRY
assay_explanation: cAMP functional assay in HEK-293 T-REx cells expressing human MC4-R, induced with doxycycline 0.1 ng/mL (low density)
Type: cell-based
condition_info: HEK293-T-REx; maximal cAMP stimulation, NDP-α-MSH = 100%; doxycycline 0.1 ng/mL; averages of all comparable assays; read-out: Emax
Bridge positions count the residues as written; N and C are the ends. Square brackets hold non-standard residues; d marks the D form. Peptide text beside a SMILES is read from it. Orn = NCCC[C@H](N)C(=O)O
Measured Emax, listed per entry for reference.
Numeric only. Scale: %

The examples below pair each entry with its known result.
compound | units_of_measure | recorded_value
CC(=O)NCC[C@@H]1NC(=O)[C@@H](NC(=O)[C@H](CCCNC(=N)N)NC(C)=O)CCC(=O)NCCC[C@@H](C(N)=O)NC(=O)[C@H](Cc2c[nH]c3ccccc23)NC(=O)[C@H](CCCNC(=N)N)NC(=O)[C@@H](Cc2ccccc2)NC1=O | % | 75
CC(=O)N[C@@H](CCCNC(=N)N)C(=O)N[C@H]1CCC(=O)NCCC[C@@H](C(=O)O)NC(=O)[C@H](Cc2c[nH]c3ccccc23)NC(=O)[C@H](CCCNC(=N)N)NC(=O)[C@@H](Cc2ccccc2)NC(=O)[C@H](Cc2c[nH]cn2)NC1=O [No. 3] (Ac-REH[dF]RW[Orn]-OH; lactam 2-7) | % | 83
CC(=O)N[C@@H](CCCNC(=N)N)C(=O)N[C@H]1CC(=O)NCCCC[C@@H](C(N)=O)NC(=O)[C@H](Cc2c[nH]c3ccccc23)NC(=O)[C@H](CCCNC(=N)N)NC(=O)[C@@H](Cc2ccccc2)NC(=O)[C@H](CCCCN)NC1=O [reference compound] (Ac-RDK[dF]RWK-NH2; lactam 2-7) | % | 97

Moving on to another compound below.
Look up Emax of CC(=O)N[C@@H](CCCNC(=N)N)C(=O)N[C@H]1CC(=O)NCCCC[C@@H](C(=O)O)NC(=O)[C@H](Cc2c[nH]c3ccccc23)NC(=O)[C@H](CCCNC(=N)N)NC(=O)[C@@H](Cc2ccccc2)NC(=O)[C@H](CCN)NC1=O [reference compound] and report it.
91

* * *

Attribute: Emax
system: human MC4-R (Homo sapiens)
Construct: expressed in transfected cells; host or cells: HEK293 T-REx (tetracycline-regulated, Invitrogen); cell line from Palatin Technologies with license from the University of Michigan
assay_explanation: cAMP functional assay in HEK-293 T-REx cells expressing human MC4-R, induced with doxycycline 0.1 ng/mL (low density)
Type: cell-based
condition_info: HEK293-T-REx; maximal cAMP stimulation, NDP-α-MSH = 100%; doxycycline 0.1 ng/mL; averages of all comparable assays; read-out: Emax
Value expressed in %; do not type the unit.

compound | units_of_measure | recorded_value
CC(=O)N[C@@H](CCCNC(=N)N)C(=O)N[C@H]1CCC(=O)NCCC[C@@H](C(=O)NC2CC2)NC(=O)[C@H](Cc2c[nH]c3ccccc23)NC(=O)[C@H](CCCNC(=N)N)NC(=O)[C@@H](Cc2ccccc2)NC(=O)[C@H](CCC(N)=O)NC1=O | % | 91

From here, focus on the item given below.
Determine from records and report Emax for CC(=O)N[C@@H](CCCNC(=N)N)C(=O)N[C@H]1CCC(=O)NCCC[C@@H](C(=O)O)NC(=O)[C@H](Cc2c[nH]c3ccccc23)NC(=O)[C@H](CCCNC(=N)N)NC(=O)[C@@H](Cc2ccccc2)NC(=O)[C@H](COCc2ccccc2)NC1=O
55

* * *

system: human MC4-R (Homo sapiens, UniProt P32245)
Construct: expressed in transfected cells; host or cells: HEK293 T-REx (tetracycline-regulated, Invitrogen); cell line from Palatin Technologies with license from the University of Michigan
assay_explanation: Competitive inhibition binding assay with [I125]-NDP-α-MSH or Eu-NDP-α-MSH, membranes of HEK-293 cells expressing recombinant hMC4-R
condition_info: human MC4-R; averages of all comparable assays; read-out: Ki
Bridge positions count the residues as written; N and C are the ends. Square brackets hold non-standard residues; d marks the D form. Peptide text beside a SMILES is read from it. Orn = NCCC[C@H](N)C(=O)O
metric: Ki (nM)
Provide only the numeric value, understood in nM.

Look over these answered cases.
compound | units_of_measure | Ki
CC(=O)N[C@@H](CCCNC(=N)N)C(=O)N[C@H]1CC(=O)NCCCC[C@@H](C(=O)O)NC(=O)[C@H](Cc2c[nH]c3ccccc23)NC(=O)[C@H](CCCNC(=N)N)NC(=O)[C@@H](Cc2ccccc2)NC(=O)[C@H](CCCN)NC1=O [reference compound] | nM | 18
CC(=O)NCCC[C@@H]1NC(=O)[C@@H](NC(=O)[C@H](CCCNC(=N)N)NC(C)=O)CC(=O)NCCCC[C@@H](C(N)=O)NC(=O)[C@H](Cc2c[nH]c3ccccc23)NC(=O)[C@H](CCCNC(=N)N)NC(=O)[C@@H](Cc2ccccc2)NC1=O [reference compound] | nM | 573

Quick one: give measured Ki for CC(=O)N[C@@H](CCCNC(=N)N)C(=O)N[C@H]1CCCNC(=O)CC[C@@H](C(N)=O)NC(=O)[C@H](Cc2c[nH]c3ccccc23)NC(=O)[C@H](CCCNC(=N)N)NC(=O)[C@@H](Cc2ccccc2)NC(=O)[C@H](C)NC1=O [No. 41] (Ac-R[Orn]A[dF]RWE-NH2; lactam 2-7)
19

Note Ki for the compound shown: CC(=O)N[C@@H](CCCNC(=N)N)C(=O)N[C@H]1CCC(=O)NCCC[C@@H](C(N)=O)NC(=O)[C@H](Cc2c[nH]c3ccccc23)NC(=O)[C@H](CCCNC(=N)N)NC(=O)[C@@H](Cc2ccccc2)NC(=O)[C@H](CCN)NC1=O
4

* * *

system: human MC4-R (Homo sapiens)
Construct: expressed in transfected cells; host or cells: HEK293 T-REx (tetracycline-regulated, Invitrogen); cell line from Palatin Technologies with license from the University of Michigan
assay_explanation: Competitive inhibition binding assay with [I125]-NDP-α-MSH or Eu-NDP-α-MSH, membranes of HEK-293 cells expressing recombinant hMC4-R
Bridge positions count the residues as written; N and C are the ends. Square brackets hold non-standard residues; d marks the D form. Peptide text beside a SMILES is read from it. Orn = NCCC[C@H](N)C(=O)O
metric: pKi
In simple prose, pKi is minus the logarithm base ten of a concentration in moles per litre.

compound | pKi
CC(=O)N[C@@H](CCCNC(=N)N)C(=O)N[C@H]1CCCNC(=O)CC[C@@H](C(N)=O)NC(=O)[C@H](Cc2c[nH]c3ccccc23)NC(=O)[C@H](CCCNC(=N)N)NC(=O)[C@@H](Cc2ccccc2)NC(=O)[C@H](CCN)NC1=O | 8.52
CC(=O)N[C@@H](CCCCN)C(=O)N[C@H]1CCCNC(=O)CC[C@@H](C(N)=O)NC(=O)[C@H](Cc2c[nH]c3ccccc23)NC(=O)[C@H](CCCNC(=N)N)NC(=O)[C@@H](Cc2ccccc2)NC(=O)[C@H](Cc2c[nH]cn2)NC1=O [No. 40] (Ac-K[Orn]H[dF]RWE-NH2; lactam 2-7) | 8.52
CC(=O)NCC[C@@H]1NC(=O)[C@@H](NC(=O)[C@H](CCCNC(=N)N)NC(C)=O)CC(=O)NCCCC[C@@H](C(N)=O)NC(=O)[C@H](Cc2c[nH]c3ccccc23)NC(=O)[C@H](CCCNC(=N)N)NC(=O)[C@@H](Cc2ccccc2)NC1=O [reference compound] | 7.48

Name the recorded pKi of the compound listed here: CC(=O)N[C@@H](CCCNC(=N)N)C(=O)N[C@H]1CC(=O)NCCCC[C@@H](C(N)=O)NC(=O)[C@H](Cc2c[nH]c3ccccc23)NC(=O)[C@H](CCCNC(=N)N)NC(=O)[C@@H](Cc2ccccc2)NC(=O)[C@H](CC(N)=O)NC1=O [reference compound] (Ac-RDN[dF]RWK-NH2; lactam 2-7)
7.49

* * *

In this section we review reported Emax values for a set of molecules.
system: human MC4-R (Homo sapiens, UniProt P32245)
Construct: expressed in transfected cells; host or cells: HEK293 T-REx (tetracycline-regulated, Invitrogen); cell line from Palatin Technologies with license from the University of Michigan
assay_explanation: cAMP functional assay in HEK-293 T-REx cells expressing human MC4-R, induced with doxycycline 0.1 ng/mL (low density)
Format: cell-based
condition_info: HEK293-T-REx; maximal cAMP stimulation, NDP-α-MSH = 100%; doxycycline 0.1 ng/mL; averages of all comparable assays; read-out: Emax
Reply numerically in %, unit not repeated.

Previously resolved entries follow.
molecule | system | metric | recorded_value
CC(=O)N[C@@H](CCCNC(=N)N)C(=O)N[C@H]1CCC(=O)NCCC[C@@H](C(=O)O)NC(=O)[C@H](Cc2c[nH]c3ccccc23)NC(=O)[C@H](CCCNC(=N)N)NC(=O)[C@@H](Cc2ccccc2)NC(=O)[C@H](CC(N)=O)NC1=O | human MC4-R (Homo sapiens, UniProt P32245) | Emax | 76
CC(=O)N[C@@H](CCCNC(=N)N)C(=O)N[C@H]1CC(=O)NCCCC[C@@H](C(N)=O)NC(=O)[C@H](Cc2c[nH]c3ccccc23)NC(=O)[C@H](CCCNC(=N)N)NC(=O)[C@@H](Cc2ccccc2)NC(=O)[C@H](CCCNC(=N)N)NC1=O [reference compound] | human MC4-R (Homo sapiens, UniProt P32245) | Emax | 68
CC(=O)N[C@@H](CCCNC(=N)N)C(=O)N[C@H]1CCC(=O)NCCC[C@@H](C(=O)O)NC(=O)[C@H](Cc2c[nH]c3ccccc23)NC(=O)[C@H](CCCNC(=N)N)NC(=O)[C@@H](Cc2ccccc2)NC(=O)[C@H](CCCN)NC1=O | human MC4-R (Homo sapiens, UniProt P32245) | Emax | 92

State, in one line, measured Emax of CCCC[C@H](NC(C)=O)C(=O)N[C@H]1CCCNC(=O)CC[C@@H](C(=O)O)NC(=O)[C@H](Cc2c[nH]c3ccccc23)NC(=O)[C@H](CCCNC(=N)N)NC(=O)[C@@H](Cc2ccccc2)NC(=O)[C@H](Cc2c[nH]cn2)NC1=O
97
